Ref: the RNAGym collection of RNA variant scans (doi:10.7554/elife.80360)

B1: Hairpin Ribozyme (parent)
chain: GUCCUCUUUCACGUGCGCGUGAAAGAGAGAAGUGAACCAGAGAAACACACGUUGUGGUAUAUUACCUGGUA

- Variants of: B1
- PROCEDURE TEXT: self-cleavage, relative activity (ratio to wild type); higher = more cleavage; co-transcriptional
# key: entry, value: self-cleavage
Output: the number by itself.

# MUTATION STRING, REPORTED RESULT
measured = [
    ("A43G A64U", 0.302),
    ("U7G G40A", 0.308),
]

Request: Return reported self-cleavage; argument: A47C A49G
Result: 0.308
